Target: MAGI3_2, Q5TCQ9
Sequence (Q5TCQ9 398-503): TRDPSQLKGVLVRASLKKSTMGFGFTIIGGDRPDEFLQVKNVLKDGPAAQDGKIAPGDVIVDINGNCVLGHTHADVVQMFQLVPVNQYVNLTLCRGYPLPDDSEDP
Test: holdup assay
Set-up: key: below the threshold = too weak to quantify, mostly under pKd 3.1 to 4
Details: plain residues with an end cap or a label only (N-terminal biotin on a linker: ado-ado)
readout_label: pKd

Field: example entries. Status: answers known.
binder: PDGQCTVTEV [RNF146, Q9NTX7]
pKd: 4.21

binder: QHKTQLQTLI [BPIFA2, Q96DR5]
pKd: 4.54

binder: NLSIEKETKL [ASNSD1, Q9NWL6]
pKd: below the threshold

binder: SKSNFGSEPL [KIF17, Q9P2E2]
pKd: below the threshold

binder: DDENIRTSDV [PLEKHA2, Q9HB19]
pKd: 4.05

get_value(item= PRISRSQSEL [CCDC134, Q9H6E4] , readout=pKd) returns 4.25

Notebook: EVNETDDTKM [KCNJ1, P48048] , pKd read as below the threshold

What the record says about RKPKPSSSCC [RAB9A, P51151] : pKd is below the threshold

Looking up TPPAAKKSRI [BAZ1A, Q9NRL2] , I found its pKd recorded as below the threshold

Sure, the documented pKd for QSARLWETSI [ADAM22, Q9P0K1] is 4.22
